# Test system: Lactobacillus paracasei
# MEASUREMENT DESCRIPTION: growth AUC relative to DMSO control (median of replicates) (fraction); higher = more growth (less inhibition), active = hit call of the paper
# CONDITION LABEL: 20 µM; 24 h
PARAMETER MEASURED: growth AUC

{"COMPOUND": "Cc1cccc(C)c1N(Cn1cccn1)C(=O)CCl", "ASSAY SYSTEM": "Lactobacillus paracasei", "PARAMETER MEASURED": "growth AUC", "QUANTITATIVE RESULT": 0.997}
{"COMPOUND": "Oc1ccc(Cl)cc1", "ASSAY SYSTEM": "Lactobacillus paracasei", "PARAMETER MEASURED": "growth AUC", "QUANTITATIVE RESULT": 1}
{"COMPOUND": "CCS(=O)(=O)Cc1ccccc1OC(=O)NC", "ASSAY SYSTEM": "Lactobacillus paracasei", "PARAMETER MEASURED": "growth AUC", "QUANTITATIVE RESULT": 1.02}
{"COMPOUND": "CCN(Cc1ccc(Cl)nc1)/C(=C/[N+](=O)[O-])NC", "ASSAY SYSTEM": "Lactobacillus paracasei", "PARAMETER MEASURED": "growth AUC", "QUANTITATIVE RESULT": 0.992}
{"COMPOUND": "CCC(C)Nc1c([N+](=O)[O-])cc(C(C)(C)C)cc1[N+](=O)[O-] (centres undefined)", "ASSAY SYSTEM": "Lactobacillus paracasei", "PARAMETER MEASURED": "growth AUC", "QUANTITATIVE RESULT": 1.01}
{"COMPOUND": "COCc1c(F)c(F)c(COC(=O)C2C(C=C(C)C)C2(C)C)c(F)c1F (centres undefined)", "ASSAY SYSTEM": "Lactobacillus paracasei", "PARAMETER MEASURED": "growth AUC", "QUANTITATIVE RESULT": 0.978}
{"COMPOUND": "CCOC(=O)CC(SP(=O)(OC)OC)C(=O)OCC (centres undefined)", "ASSAY SYSTEM": "Lactobacillus paracasei", "PARAMETER MEASURED": "growth AUC", "QUANTITATIVE RESULT": 0.973}
{"COMPOUND": "OCC1C(CO)C2(Cl)C(Cl)=C(Cl)C1(Cl)C2(Cl)Cl (centres undefined)", "ASSAY SYSTEM": "Lactobacillus paracasei", "PARAMETER MEASURED": "growth AUC", "QUANTITATIVE RESULT": 1.01}
{"COMPOUND": "O=C(O)COc1cc(Cl)c(Cl)cc1Cl", "ASSAY SYSTEM": "Lactobacillus paracasei", "PARAMETER MEASURED": "growth AUC", "QUANTITATIVE RESULT": 0.995}

====

# System: Fusobacterium nucleatum subsp. animalis
# MEASUREMENT DESCRIPTION: growth AUC relative to DMSO control (median of replicates) (fraction); higher = more growth (less inhibition), active = hit call of the paper
# CONDITION LABEL: 20 µM; 24 h
Property: growth AUC; scope: individual compounds
PARAMETER MEASURED: growth AUC

{"COMPOUND": "CNC(=O)O/N=C(\\C)C(C)S(C)=O (stereo unspecified)", "PARAMETER MEASURED": "growth AUC", "QUANTITATIVE RESULT": 1.02}
{"COMPOUND": "Cc1nnc(-c2ccccc2)c(=O)n1N", "PARAMETER MEASURED": "growth AUC", "QUANTITATIVE RESULT": 0.998}
{"COMPOUND": "O=[N+]([O-])C(Br)(CO)CO", "PARAMETER MEASURED": "growth AUC", "QUANTITATIVE RESULT": 1}
{"COMPOUND": "CCCC1COC(Cn2cncn2)(c2ccc(Cl)cc2Cl)O1 (stereo unspecified)", "PARAMETER MEASURED": "growth AUC", "QUANTITATIVE RESULT": 1}
{"COMPOUND": "COc1nc(C)nc(NC(=O)NS(=O)(=O)c2ccccc2Cl)n1", "PARAMETER MEASURED": "growth AUC", "QUANTITATIVE RESULT": 1.02}
{"COMPOUND": "Oc1ccccc1-c1ccccc1", "PARAMETER MEASURED": "growth AUC", "QUANTITATIVE RESULT": 0.988}
{"COMPOUND": "O=C(NC(=O)c1c(F)cccc1F)Nc1ccc(OC(F)(F)C(F)OC(F)(F)F)c(Cl)c1 (stereo unspecified)", "PARAMETER MEASURED": "growth AUC", "QUANTITATIVE RESULT": 0.986}
{"COMPOUND": "COP(=O)(OC)OC(Br)C(Cl)(Cl)Br (stereo unspecified)", "PARAMETER MEASURED": "growth AUC", "QUANTITATIVE RESULT": 0.973}
{"COMPOUND": "COC(=O)c1cc(Oc2ccc(Cl)cc2Cl)ccc1[N+](=O)[O-]", "PARAMETER MEASURED": "growth AUC", "QUANTITATIVE RESULT": 0.975}
{"COMPOUND": "Cc1nc(N(C)C)nc(OC(=O)N(C)C)c1C", "PARAMETER MEASURED": "growth AUC", "QUANTITATIVE RESULT": 1}
{"COMPOUND": "CCC(C)n1c(=O)[nH]c(C)c(Br)c1=O (stereo unspecified)", "PARAMETER MEASURED": "growth AUC", "QUANTITATIVE RESULT": 1.01}
{"COMPOUND": "O=C(NC(=O)c1c(F)cccc1F)Nc1cc(Cl)c(OC(F)(F)C(F)C(F)(F)F)cc1Cl (stereo unspecified)", "PARAMETER MEASURED": "growth AUC", "QUANTITATIVE RESULT": 1.01}
{"COMPOUND": "Oc1cc(Cl)c(Cl)cc1Cl", "PARAMETER MEASURED": "growth AUC", "QUANTITATIVE RESULT": 1}
{"COMPOUND": "CC(C)C1(C)N=C(c2nc3ccccc3cc2C(=O)O)NC1=O (stereo unspecified)", "PARAMETER MEASURED": "growth AUC", "QUANTITATIVE RESULT": 1.02}
{"COMPOUND": "c1coc(-c2nc3ccccc3[nH]2)c1", "PARAMETER MEASURED": "growth AUC", "QUANTITATIVE RESULT": 0.985}
{"COMPOUND": "CCC(C)Nc1c([N+](=O)[O-])cc(C(C)(C)C)cc1[N+](=O)[O-] (stereo unspecified)", "PARAMETER MEASURED": "growth AUC", "QUANTITATIVE RESULT": 1.02}

====

# Test system: Bacteroides clarus
# MEASUREMENT DESCRIPTION: growth AUC relative to DMSO control (median of replicates) (fraction); higher = more growth (less inhibition), active = hit call of the paper
# CONDITION LABEL: 20 µM; 24 h

{"COMPOUND": "CCOc1cc(OP(=S)(OC)OC)nc(CC)n1", "growth AUC": 1}
{"COMPOUND": "O=C(O)C(F)(F)C(F)(F)C(F)(F)C(F)(F)C(F)(F)C(F)(F)F", "growth AUC": 1}
{"COMPOUND": "COC(=O)[C@@H](C)N(C(=O)Cc1ccccc1)c1c(C)cccc1C", "growth AUC": 0.98}
{"COMPOUND": "COC(=O)c1cc(Oc2ccc(Cl)cc2Cl)ccc1[N+](=O)[O-]", "growth AUC": 0.793}
{"COMPOUND": "CCc1cnc(C2=NC(C)(C(C)C)C(=O)N2)c(C(=O)O)c1 (stereo not drawn)", "growth AUC": 0.971}
{"COMPOUND": "COP(=O)(OC)O/C(=C\\Cl)c1ccc(Cl)cc1Cl", "growth AUC": 1.02}
{"COMPOUND": "Cc1cnc(C2=NC(C)(C(C)C)C(=O)N2)c(C(=O)O)c1 (stereo not drawn)", "growth AUC": 0.993}
{"COMPOUND": "CN(C)S(=O)(=O)N(SC(F)(Cl)Cl)c1ccccc1", "growth AUC": 1.03}
{"COMPOUND": "COP(=O)(OC)Oc1ccc(S(C)(=O)=O)c(C)c1", "growth AUC": 0.963}
{"COMPOUND": "CNC(=O)Oc1ccccc1OC(CCl)OC (stereo not drawn)", "growth AUC": 1.06}
{"COMPOUND": "C[Si](Cn1cncn1)(c1ccc(F)cc1)c1ccc(F)cc1", "growth AUC": 0.907}
{"COMPOUND": "N#Cc1cc(Br)c(O)c(Br)c1", "growth AUC": 0.951}
{"COMPOUND": "CCOP(=S)(OCC)Oc1cc(C)nc(N(CC)CC)n1", "growth AUC": 0.979}
{"COMPOUND": "O=C(O)c1c(Cl)ccc2cc(Cl)cnc12", "growth AUC": 0.983}
{"COMPOUND": "CP(=O)(O)CC(=O)O", "growth AUC": 0.96}
{"COMPOUND": "Cc1cc(Cl)ccc1OCC(=O)O.O.[Na]", "growth AUC": 1.01}
{"COMPOUND": "Cc1cc(C)nc(NC(=O)NS(=O)(=O)c2ccccc2C(=O)OC2COC2)n1", "growth AUC": 0.973}
{"COMPOUND": "Cc1cc(Cl)ccc1OC(C)C(=O)O (stereo not drawn)", "growth AUC": 0.996}
{"COMPOUND": "COCc1c(F)c(F)c(COC(=O)[C@@H]2[C@@H](C=C(Cl)Cl)C2(C)C)c(F)c1F", "growth AUC": 1.03}
{"COMPOUND": "CC1COC(Cn2cncn2)(c2ccc(Oc3ccc(Cl)cc3)cc2Cl)O1 (stereo not drawn)", "growth AUC": 0.898}
{"COMPOUND": "OCC1C(CO)C2(Cl)C(Cl)=C(Cl)C1(Cl)C2(Cl)Cl (stereo not drawn)", "growth AUC": 0.818}
{"COMPOUND": "CCCSP(=S)(OCC)Oc1ccc(Cl)cc1Cl (stereo not drawn)", "growth AUC": 1.05}
{"COMPOUND": "CCCCN(CCCC)N=O", "growth AUC": 1.02}
{"COMPOUND": "O=C1C2(Cl)C3(Cl)C4(Cl)C(Cl)(Cl)C5(Cl)C3(Cl)C1(Cl)C5(Cl)C24Cl (stereo not drawn)", "growth AUC": 0.02}
{"COMPOUND": "O=C(O)CNCP(=O)(O)O", "growth AUC": 0.999}
{"COMPOUND": "COc1nc(C)nc(NC(=O)NS(=O)(=O)c2ccccc2Cl)n1", "growth AUC": 0.959}
{"COMPOUND": "C#CCOc1ccc(CCNC(=O)C(OCC#C)c2ccc(Cl)cc2)cc1OC (stereo not drawn)", "growth AUC": 0.948}
{"COMPOUND": "C1=Cc2cccc3cccc1c23", "growth AUC": 0.996}
